ASSAY_SYSTEM: KRas G12C (Homo sapiens, UniProt P01116, G12C)
Construct: Biotinylated KRas (corresponding to amino acids 1-169, produced at Accelegan Inc.); biotin (biotinylated); purchased Accelegan Inc
Sequence (P01116 1-169 isoform P01116-2 G12C): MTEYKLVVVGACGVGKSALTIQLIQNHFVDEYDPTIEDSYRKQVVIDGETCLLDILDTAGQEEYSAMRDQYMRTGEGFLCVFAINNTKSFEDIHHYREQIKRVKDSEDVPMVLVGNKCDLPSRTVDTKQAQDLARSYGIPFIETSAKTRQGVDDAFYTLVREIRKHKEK
ASSAY_REMARKS: KRas binding assay, TR-FRET displacement of Cy5 labelled tracer
TEST_SETTINGS: 60-minute incubation at room temperature, 1% DMSO, pH 7.5
REPORTED_ENDPOINT: IC50 (nM)

Some solved entries appear below for comparison.
>>> quantitative_readout("CCc1c(F)ccc2cc(O)cc(-c3ncc4c(N5CCC(C(=O)n6ccc(C(C)(C)C)n6)CC5)nc(OC[C@@]56CCCN5C[C@H](F)C6)nc4c3F)c12")
234
>>> quantitative_readout("Cc1ccn(C(=O)[C@H]2CCCN(c3nc(OC[C@@]45CCCN4C[C@H](F)C5)nc4c(F)c(-c5ccc(F)c6sc(N)c(C#N)c56)c(Cl)cc34)CC2)n1 (atropisomer, axis not shown; (aS))")
2
>>> quantitative_readout("CCc1c(F)ccc2cc(O)cc(N3CCc4c(nc(OC[C@@]56CCCN5C[C@H](F)C6)nc4N4CCCC(C(=O)n5ccc(C)n5)C4)C3)c12 (stereo partly shown)")
50
>>> quantitative_readout("CCc1c(F)ccc2cc(O)cc(-c3ncc4c(N5CCCCC(C(=O)N(C)C(C)=O)CC5)nc(OC[C@@]56CCCN5C[C@H](F)C6)nc4c3F)c12 (stereo partly shown)")
52
>>> quantitative_readout("N#Cc1c(N)sc2c(F)ccc(-c3c(C(F)(F)F)cc4c(N5CCC(C(=O)Oc6ccccc6)CC5)nc(OC[C@@]56CCCN5C[C@H](F)C6)nc4c3F)c12")
11

A: Cc1cc(C)n(C(=O)C2CCN(c3nc(OCC45CCCN4CCC5)nc4c(F)c(-c5cccc6cccc(F)c56)ncc34)CC2)n1
B: CCc1c(F)ccc2cc(O)cc(-c3ncc4c(NC[C@H]5C[C@@H]5C(=O)n5ccc(C)n5)nc(OC[C@@]56CCCN5C[C@H](F)C6)nc4c3F)c12
## Task Dear colleague, could you let me know whether A or B has the lower recorded IC50? Thanks. Select an item and report its label.
## Result B

a: O=C(C1CCN(c2nc(OCC34CCCN3CCC4)nc3c(F)c(-c4cccc5cccc(F)c45)ncc23)CC1)n1cccn1
b: Cc1ccn(C(=O)[C@H]2C[C@H]2CNc2nc(OC[C@@]34CCCN3C[C@H](F)C4)nc3c(F)c(-c4ccc(F)c5sc(N)c(C#N)c45)c(Cl)cc23)n1
## Task Field: entry with larger IC50 (options a / b ). Your choice should be expressed through its label.
## Result a
